Target: T1, human APJ receptor (hAPJ) (human, UniProt P35414 1-380)
T1 sequence (looked up): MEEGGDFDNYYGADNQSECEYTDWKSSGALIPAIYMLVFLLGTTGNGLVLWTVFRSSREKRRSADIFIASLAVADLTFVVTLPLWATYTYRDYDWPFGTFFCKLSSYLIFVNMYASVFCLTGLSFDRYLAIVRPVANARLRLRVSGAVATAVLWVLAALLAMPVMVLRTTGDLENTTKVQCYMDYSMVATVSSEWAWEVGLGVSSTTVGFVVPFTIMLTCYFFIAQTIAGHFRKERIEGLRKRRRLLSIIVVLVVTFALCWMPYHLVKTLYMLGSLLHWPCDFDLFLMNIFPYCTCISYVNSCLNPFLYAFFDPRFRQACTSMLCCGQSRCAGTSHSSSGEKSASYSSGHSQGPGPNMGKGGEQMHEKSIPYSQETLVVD
Experiment: cell-based or functional assay
Bridges are numbered along the chain shown (N, C = ends). [ ]: non-standard residue; d: D form. pGlu = O=C1CC[C@@H](C(=O)O)N1; d(hCys) = N[C@H](CCS)C(=O)O; Nle = CCCC[C@H](N)C(=O)O
readout-type: hAPJ Ca2+ Flux EC50 (nM)
Output spec: scalar in nM, unitless text.

In: Entry under review: [pGlu]RPRLCHKGP[Nle][d(hCys)]F-OH (disulfide 6-12; SMILES CCCC[C@@H]1NC(=O)[C@@H]2CCCN2C(=O)CNC(=O)[C@H](CCCCN)NC(=O)[C@H](Cc2c[nH]cn2)NC(=O)[C@@H](NC(=O)[C@H](CC(C)C)NC(=O)[C@H](CCCNC(=N)N)NC(=O)[C@@H]2CCCN2C(=O)[C@H](CCCNC(=N)N)NC(=O)[C@@H]2CCC(=O)N2)CSSCC[C@H](C(=O)N[C@@H](Cc2ccccc2)C(=O)O)NC1=O) [Example 54: pE-R-P-R-L-C-H-K-G-P-Nle-(D-hC)-F-OH] . Reported hAPJ Ca2+ Flux EC50?
Out: 6.7

The values you see were collected from patent US8673848.
